- assay-remarks: Cycloheximide Counterscreen for Small Molecule Inhibitors of Shiga Toxin; further: read at 38.3 µM for the half of the compounds with a filed dose
- condition-description: cell reporter, cycloheximide protein synthesis inhibition counterscreen
The campaign covered roughly 300,000 compounds. About 37,000 (12%) were called active. No stated cut-off is given here; in the data, active means max response mostly above about 13% (no sharp cut-off); inactive means mostly below about 14%. This excerpt belongs to a sample that is enriched for actives.
Could you please pick one outcome from this set? T (active), F (inactive)

Record excerpt, results attached:
INSERT INTO assay_data (molecule, classification) VALUES
  ('COc1ccc(-c2csc(NC3OC(=O)c4ccccc43)n2)cc1 (centres undefined)', 'T'),
  ('COc1ccc(C(=O)Nc2nc(-c3ccc(S(=O)(=O)N4CCOCC4)cc3)cs2)cc1', 'F'),
  ('Cc1ccc(-c2csc(NC(=O)Cn3[nH]c(=O)c4ccccc4c3=O)n2)cc1', 'F');

-- ask I'd appreciate the recorded outcome for "O=C1C(=O)N(c2ccccc2)c2ccccc21" from this test.
-- reply F

-- ask I'd appreciate the recorded outcome for "Cc1ccc2ccc3c(c2n1)NS(=O)(=O)c1ccccc1-3" from this test.
-- reply F

-- ask I'd appreciate the recorded outcome for "CCN(CC)Cc1cc(C(C)=O)ccc1O" from this test.
-- reply F

-- ask I'd appreciate the recorded outcome for "CCSc1nc(O)c(C(c2cccc(OC)c2)c2c(O)nc(SCC)[nH]c2=O)c(=O)[nH]1" from this test.
-- reply F

-- ask I'd appreciate the recorded outcome for "O=C(CNC(=O)c1ccccc1)Oc1ccc([N+](=O)[O-])cc1" from this test.
-- reply F

-- ask I'd appreciate the recorded outcome for "COc1ccc(C(=O)COC(=O)c2ccc3ccccc3n2)cc1" from this test.
-- reply T

-- ask I'd appreciate the recorded outcome for "O=C(Nc1ccccc1N1CCCC1)c1ccc2ccccc2c1" from this test.
-- reply F

Value source: PubChem BioAssay AID2314
